target: D-CXCL8 (mirror-image human CXCL8) (synthetic (human sequence)) (UniProt P10145); assay: pulldown; conditions: direct pull-down; 37 C
Sequence (P10145 23-99): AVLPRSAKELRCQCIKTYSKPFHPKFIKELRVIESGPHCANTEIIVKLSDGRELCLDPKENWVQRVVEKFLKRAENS
observable: Kd (nM)

[[record]]
monomer_sequence = "GCUGACGGAAGUACGUGGAAAGCCAAUGAGUGUGUCCCGGUCAGC [315-H9-001 (D)]"
uom = "nM"
numeric_result = 1.7


---

target: CXCL8 (IL-8) (Homo sapiens) (UniProt P10145); assay: SPR; settings: L-RNA; 25 C; CXCL8 immobilised; 20 mM Tris pH 7.4, 150 mM NaCl, 5 mM KCl, 1 mM MgCl2, 1 mM CaCl2
Sequence (P10145 23-99): as the sequence (P10145 23-99) above
pKd: −log10 of the molar value.
observable: pKd

[[record]]
monomer_sequence = "GCUGACGGAAGUACGUGGAAAGCCGAAAGUGUGUCCCGGUCAGC [315-F8-001 (L)]"
numeric_result = 9.66

